# experimental details: Biodistribution in HEK293-hsst5+ tumor-bearing mice
# Type: in vivo
# test context: mouse, muscle, iv, 10 pmol total peptide, total radioactivity; HEK293-hsst5+ tumor SCID mice, 4 h pi; mean ± SD; read-out: Muscle uptake
recorded endpoint: tissue uptake at 4 h

What value of measured tissue uptake at 4 h is listed for C[C@H](NC(=O)CN1CCN(CC(=O)O)CCN(CC(=O)O)CCN(CC(=O)O)CC1)C(=O)NCC(=O)N[C@H]1CSSC[C@@H](C(=O)O)NC(=O)[C@H](CO)NC(=O)[C@H]([C@@H](C)O)NC(=O)[C@H](Cc2ccccc2)NC(=O)[C@H]([C@@H](C)O)NC(=O)[C@H](CCCCN)NC(=O)[C@@H](Cc2c[nH]c3ccccc23)NC(=O)[C@H](Cc2ccccc2)NC(=O)[C@H](Cc2ccccc2)NC(=O)[C@H](CC(N)=O)NC(=O)[C@H](CCCCN)NC1=O [[^111In]AT2S, metal not drawn] ?
0.06 %ID/g
